Would you kindly list TGI for each of these compounds?
tested on: DLD-1 colon; assay: NCI tumour cell line growth inhibition, 48 h

Asked: Reported TGI, compound CN1C(=O)C(=O)c2cc3c(c4c2c1cc1ccccc14)OCO3 : ____
Given back: > 100 µM

Asked: Now the compound O=c1c2cccc3cccc(c4n1CCN=4)c32
Given back: > 100 µM

Asked: What about O=C1C(Cl)C(c2ccccc2O)N1n1cnc2ccccc2c1=O (stereo not drawn) ?
Given back: > 100 µM

###

tested on: ACHN renal; test: NCI tumour cell line growth inhibition, 48 h
PROPERTY: TGI

Asked: Fill in: TGI of CCOC(=O)CC(=O)Nc1cccc2[nH]cnc12 is ___
Given back: > 100 µM

Asked: Could you do the same for Nc1ccc(C(=O)c2cn(CCN3CCOCC3)c3ccccc23)c2ccccc12 , please?
Given back: > 100 µM

Asked: Try O=C(/C=C/c1ccccc1)n1c(-c2ccc(Cl)cc2)nc2ccccc21 next.
Given back: 10 µM

Asked: Now give it for COc1cc(-c2nc(-c3nc4ccccc4[nH]3)cc3c2[nH]c2ccccc23)cc(OC)c1OC too.
Given back: > 100 µM

Asked: Try this compound too: O=C(O)/C(Cc1ccc([N+](=O)[O-])cc1)=N\O
Given back: > 100 µM

Asked: For COc1cc(CNc2ccccc2C(=O)N2CCN(C(=O)c3cc(-c4cc(OC)c(OC)c(OC)c4)n4nc(-c5ccccc5)cc4n3)CC2)cc(OC)c1OC then?
Given back: > 100 µM

Asked: Record: Nc1ccn(C2OC(COC(=O)C34CC5CC(CC(C5)C3)C4)C(O)C2O)c(=O)n1 (stereo unspecified)
Given back: > 100 µM

Asked: CN(/N=C/c1ccnc2ccccc12)c1ccc(Cl)cc1[N+](=O)[O-] , same question.
Given back: > 100 µM

Asked: And then COC(=O)N1CC2C3C4CC(C(c5ccccc5)=C4c4ccccc4)C3C21 (stereo unspecified) , what is it?
Given back: 52.3 µM

Asked: For COC(=O)C1[C@H](c2cc(OC)c(OC)c(OC)c2)OC(=O)C1(C(=O)OC)C(=O)c1ccc2c(c1)OCO2 (stereo partly specified) then?
Given back: > 100 µM

Asked: Can you check CCOC(=N)/C(=C1\OC(N)=C(c2ccc(Cl)cc2)C1=O)c1ccc(Cl)cc1 next?
Given back: 51 µM

Asked: Param item: C=CCO[C@]1(CC=C)C(=O)C(=O)OC1C1COC(C)(C)O1 (stereo partly specified)
Given back: 31.1 µM

Asked: Similarly, O=Cc1cccc2c1Oc1c(cccc1C(=O)O)S2 ?
Given back: > 100 µM

Asked: Proceed to CN(C)c1nc(=Nc2cccc(Cl)c2)ss1
Given back: 37.2 µM

Asked: Try this compound next: Cc1c2c(OCCN3CCCCC3)nn(C)c(=O)c2c(C)n1-c1ccccc1
Given back: > 100 µM

Asked: Another compound to look at: CC(=O)[CH-]C(=O)c1ccccc1.CC(=O)[CH-]C(=O)c1ccccc1.CCOCC[O-].CCOCC[O-].[Ti+4]
Given back: > 100 µM

###

tested on: COLO 205 colon; assay: NCI tumour cell line growth inhibition, 48 h
Give measured TGI for each item. Keep answers brief.

Asked: Provide the documented TGI with COLO 205 colon as the system for O=[N+]([O-])c1cc2c(cc1/C=N/n1c(CO)nc3ccccc31)OCO2
Given back: > 100 µM

Asked: Subsequent entry: Cc1cc(C)c(NC(=S)NC(=O)c2ccccc2)cc1C
Given back: > 100 µM

Asked: Field entry: CC(=O)N=C1N(/C=C2\C(=O)Oc3ccccc3C2=O)C(=O)/C(=C/c2ccc(NC(C)=O)cc2)N1C
Given back: > 100 µM

###

Kindly supply the reported TGI values for the records listed here.
tested on: OVCAR-5 ovarian; assay: NCI tumour cell line growth inhibition, 48 h

Asked: Could you share which TGI value was measured for NC(=O)c1cccc(Nc2nccc(Nc3cccc4[nH]ncc34)n2)c1 ?
Given back: > 25 µM

Asked: Please give the result for COc1ccc(CN=C(N)N)c2ccccc12 too.
Given back: 73.4 µM

Asked: Now give it for COc1cc(CNC2c3cc4c(cc3C(c3cc(OC)c(OC)c(OC)c3)[C@H]3C(=O)OCC23)OCO4)cc(OC)c1OC (stereo partly specified) too.
Given back: > 100 µM

Asked: Same for Cc1cccc(C)c1NC(=O)Nc1ccc(S(N)(=O)=O)cc1
Given back: > 100 µM

Asked: Continue with CC(=O)N=C1N(/C=C2\C(=O)Oc3ccccc3C2=O)C(=O)/C(=C/c2ccc(Cl)cc2Cl)N1C
Given back: > 100 µM

Asked: Moving on to the next compound: CCCC(CCC)C(=O)OCC1(CO)C/C(=C\c2ccc(F)cc2)C(=O)O1 (stereo unspecified)
Given back: 31.4 µM

###

Assignment: determine reported TGI for the given compounds.
test system: OVCAR-4 ovarian; test: NCI tumour cell line growth inhibition, 48 h
Report only the number, with the unit µM understood.

Asked: Data request, read-out TGI, for O=S1Nc2c(Cl)cc(Cl)c3c(Cl)cc(Cl)c(c23)N1
Given back: 91.2

Asked: Now the same for CCc1cccc(CC)c1NC(=O)C1=C(C)NC(C)=C(C(=O)Nc2c(CC)cccc2CC)C1c1ccc([N+](=O)[O-])cc1
Given back: 33.8

Asked: Also need COc1ccc2cc(CN3CCC(C4CCNCC4)CC3)ccc2c1 , thanks.
Given back: 31.3

Asked: Next entry: COC(=O)c1cnc(Cl)cn1
Given back: 45.5

Asked: Then Cc1cn([C@@H]2O[C@H](CO[Si](C)(C)C(C)(C)C)[C@]3(O[C@H]3C(=O)NN)[C@H]2O[Si](C)(C)C(C)(C)C)c(=O)[nH]c1=O ?
Given back: 22.6

Asked: Next up: COc1cccc(/C=C/C(=O)c2ccc(Cl)cc2Cl)c1
Given back: 41

Asked: Next: O=C(CNc1ccccc1[N+](=O)[O-])Nn1c(-c2ccccc2)nc2ccccc2c1=O
Given back: 32.1

###

test system: SK-OV-3 ovarian; test: NCI tumour cell line growth inhibition, 48 h
Exercise: state measured TGI for each of the molecules provided.

Asked: Bench note: what TGI did CCCCCCCCCCCCCCCC(=O)N(CCCCCCCCCCC(=O)O)CC(O)C(O)C(OC1OC(CO)C(O)C(O)C1O)C(O)CO (configuration not stated) show?
Given back: > 100 µM

Asked: Could you do the same for C=C(Nc1ccc([N+](=O)[O-])cc1[N+](=O)[O-])c1c/c(=N\NC(N)=S)c2ccccc2o1 , please?
Given back: > 100 µM

Asked: Now give it for Cc1c(C(=O)/C=C/c2ccc(N(C)C)cc2)c(=O)n(-c2ccccc2)n1C too.
Given back: > 100 µM

Asked: And then Cc1ccc(/C(O)=C/c2nc3ccccc3s/c2=N/CS(=O)(=O)c2ccc(C)cc2)cc1 , what is it?
Given back: > 10 µM

Asked: Same for CCOC(=O)CC(=O)Nc1cccc2[nH]cnc12
Given back: > 100 µM

Asked: Try COc1cc2c(cc1OC)C1(COc3cc(O)c(O)c(O)c3C1=O)C2 (configuration not stated) next.
Given back: > 50 µM

Asked: Cool, now O=c1[nH]c2cc(Cl)ccc2nc1/C(=N\O)C(O)c1ccc([N+](=O)[O-])cc1 (configuration not stated)
Given back: > 100 µM

Asked: Try Cc1ccc(C)c(C2NC(=O)c3ccccc3N2)c1 (configuration not stated) next.
Given back: > 75.1 µM

Asked: Entry to check: O=C(Cc1ccccc1)Nn1c(-c2ccccc2)nc2ccccc2c1=O
Given back: > 100 µM

Asked: Same thing, different molecule: COC(C(=O)NCCCCNC(=O)C(OC)c1ccccc1)c1ccccc1 (configuration not stated)
Given back: > 100 µM

Asked: Same thing, different molecule: COc1cc(-c2nc(-c3nc4ccccc4[nH]3)cc3c2[nH]c2ccccc23)cc(OC)c1OC
Given back: > 100 µM

Asked: // next record CN(C)CCCn1nc(N)c2nc3cc(Cl)ccc3nc21
Given back: > 100 µM

###

test system: SF-539 CNS; assay: NCI tumour cell line growth inhibition, 48 h
Give measured TGI for each item. Keep answers brief.

Asked: Fill in: TGI of Nc1ccn(C2OC(COC(=O)C34CC5CC(CC(C5)C3)C4)C(O)C2O)c(=O)n1 (centres undefined) is ___
Given back: > 100 µM

Asked: # repeat for Cc1c(C(=O)/C=C/c2ccccc2O)c(=O)n(-c2ccccc2)n1C
Given back: 55.5 µM

Asked: Param item: COC(=O)C(Cc1nc2ccccc2[nH]c1=O)C(=O)C(=O)Nc1ccc([N+](=O)[O-])cc1[N+](=O)[O-] (centres undefined)
Given back: 38.5 µM

Asked: Again, but for O=C1/C(=C\c2ccccn2)c2ccccc2N1c1c(Cl)cccc1Cl
Given back: 6.33 µM

###

Assignment: determine reported TGI for the given compounds.
system: SNB-75 CNS; assay: NCI tumour cell line growth inhibition, 48 h

Asked: For the compound CC1C2(C)OC(=N)C(C#N)(C(c3cccc([N+](=O)[O-])c3)O2)C1(C#N)C#N (stereo not drawn) , what TGI is on record?
Given back: > 100 µM

Asked: Same question for C[N+](C)(C)CC(=O)N/N=C(\C(=O)NC1=C(Cl)C(=O)c2ccccc2C1=O)C(C#N)c1csc(-c2ccc([N+](=O)[O-])cc2)n1 (stereo not drawn) please.
Given back: > 100 µM

Asked: What would you report for FC1C2=C(SC1(F)F)C1CCC2C1 (stereo not drawn) ?
Given back: > 100 µM

Where do the numbers come from? From PubChem BioAssay (NCI).
